IC50: recorded values
target: Neuropeptide Y receptor type 5 (Homo sapiens, UniProt Q15761); assay: Displacement of [125I]PYY from human recombinant Y5 receptor expressed in mouse LMtk cells
Sequence (Q15761 whole entry): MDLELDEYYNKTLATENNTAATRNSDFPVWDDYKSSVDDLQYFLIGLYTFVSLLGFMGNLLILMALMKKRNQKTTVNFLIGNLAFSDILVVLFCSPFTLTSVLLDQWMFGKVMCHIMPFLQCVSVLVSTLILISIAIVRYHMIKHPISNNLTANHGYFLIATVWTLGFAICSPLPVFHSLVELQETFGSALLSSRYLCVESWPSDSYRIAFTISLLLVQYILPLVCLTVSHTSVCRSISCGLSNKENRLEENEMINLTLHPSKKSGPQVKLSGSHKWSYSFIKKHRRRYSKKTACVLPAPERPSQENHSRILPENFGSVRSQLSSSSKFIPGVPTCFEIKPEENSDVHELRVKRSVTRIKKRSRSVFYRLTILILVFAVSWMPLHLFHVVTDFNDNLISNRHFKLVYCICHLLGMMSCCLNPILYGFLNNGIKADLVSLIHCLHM
The reply should be a number in nM, with the unit left off.

Please review the following examples before continuing.
INSERT INTO measurements (compound_structure, system_name, quantity_kind, quantity_unit, value_reported) VALUES
  ('CS(=O)(=O)N1CC2(CCN(C(=O)Nc3ncc(-c4ccccc4)cn3)CC2)c2ccccc21', 'Neuropeptide Y receptor type 5 (Homo sapiens, UniProt Q15761)', 'IC50', 'nM', 0.57),
  ('CS(=O)(=O)N1CC2(CCN(C(=O)Nc3nccc(-c4ccccc4)n3)CC2)c2ccccc21', 'Neuropeptide Y receptor type 5 (Homo sapiens, UniProt Q15761)', 'IC50', 'nM', 9.8),
  ('CS(=O)(=O)N1CC2(CCN(C(=O)Nc3ccc(-c4ccccc4)nn3)CC2)c2ccccc21', 'Neuropeptide Y receptor type 5 (Homo sapiens, UniProt Q15761)', 'IC50', 'nM', 3);

Task: Fill in: IC50 of "CS(=O)(=O)N1C[C@]2(CC[C@@H](C(=O)Nc3ccc(-c4ccccc4)cc3)CC2)c2ccccc21" is ___
Result: 200

Task: Which value of IC50 has been reported for "CS(=O)(=O)N1CC2(CCN(C(=O)Nc3ccnc(-c4ccccc4)n3)CC2)c2ccccc21" in the records?
Result: 7.5

Task: Can you look up the measured IC50 of "CS(=O)(=O)N1CC2(CCN(C(=O)Nc3ccccc3-c3ccccc3)CC2)c2ccccc21" for me?
Result: 430
